Entries annotated with measured TGI
# Tested on: COLO 205 colon
# protocol: NCI tumour cell line growth inhibition, 48 h
Give just the number in µM; leave the unit off.

# annotated cases, reported TGI shown
>>> readout_value("O=C(Nc1ccncc1)C(=O)c1cn(S(=O)(=O)c2cccc(Cl)c2)c2ccccc12")
70.3
>>> readout_value("O[C@@]1(C#Cc2ccc3c(c2)OCO3)CCC[C@H]1NCc1ccccc1")
37.4
>>> readout_value("CC1(c2ccccc2)O[C@@H]2C[C@H]3[C@@H]4CCC5=CC(=O)C=C[C@]5(C)[C@@]4(F)[C@@H](O)C[C@]3(C)[C@]2(C(=O)CO)O1 (some centres undefined)")
27.8

Please give measured TGI of the following entry: C[C@@H]1S[C@H](c2c(F)cccc2Cl)n2c1nc1ccccc12
23.6
